System: GM3
Assay: GM3 Elisa assay
Assay type: cell-based
Conditions: Table 3 (title: IC 50 Values); read-out: IC50_uM_Mean
pIC50: −log10 of the molar value.
MEASUREMENT NAME: pIC50

Take a look at these entries with their results.
| COMPOUND | MEASUREMENT NAME | ENDPOINT RESULT |
| --- | --- | --- |
| O=C(N[C@H](CN1CCCC1)[C@H](O)c1ccc2c(c1)OCCO2)[C@H]1CC[C@@H](C(=O)c2ccc(F)cc2)C1 | pIC50 | 5.00 to 5.52 |
| CCCCCCCC(=O)N[C@H](CN1CC[C@@H](F)C1)[C@H](O)c1ccc2c(c1)OCCO2 | pIC50 | 6.00 to 7.00 |
| CCCCCCCC(=O)N[C@H](CN1CCC[C@H]1COC)C(O)c1ccc2c(c1)OCCO2 (stereo partly shown) | pIC50 | 5.00 to 5.52 |
| CCCCCCCC(=O)N[C@H](CN1CCCC1(C)C)[C@@H](O)c1ccc2c(c1)OCCO2 | pIC50 | 5.00 to 5.52 |
| COc1ccc(C(=O)CCOCCC(=O)N[C@H](CN2CC[C@@H](O)C2)[C@H](O)c2ccc3c(c2)OCCO3)cc1 | pIC50 | 6.00 to 7.00 |
| O=C(CCCCOC1CCOCC1)N[C@H](CN1CC[C@@H](F)C1)[C@@H](O)c1ccc(CCc2ccccc2)cc1 | pIC50 | 6.00 to 7.00 |

Incoming: For the compound CC(=O)CCCCCC(=O)N[C@H](CN1CCCC1)[C@@H](O)c1ccc(OC(F)(F)F)cc1 , what pIC50 is on record?
Outgoing: 5.00 to 5.52

Incoming: How about this compound: Cc1noc(CCCCC(=O)N[C@@H](CN2CCCC2)C(O)c2ccc3c(c2)OCCO3)n1 (stereo partly shown)
Outgoing: 5.00 to 5.52

Incoming: How about this compound: Cc1nccn1C[C@@H](NC(=O)CCCCCC(=O)c1ccc(F)cc1)[C@@H](O)c1ccc2c(c1)OCCO2
Outgoing: 5.00 to 5.52
